Test: in vitro
Conditions: human, Caco-2, Caco-2 (cm/sec)
*1 amine or outer side, *2 acyl side, *3 side chain or, on linkers, in order; H or OH if unused. Where a SMILES comes first, the peptide text is derived from it. Bridges are numbered along the chain shown (N, C = ends). [ ]: non-standard residue; d: D form. The star is where a group is joined. NMePhe(3-Cl) = CN[C@@H](Cc1cccc(Cl)c1)C(=O)O; Tyr(3-OMe) = COc1cc(C[C@H](N)C(=O)O)ccc1O; NMehPhe = CN[C@@H](CCc1ccccc1)C(=O)O; X7 = O=C(C[C@H](COCCO)N[*:1])[*:2]; NMeF = CN[C@@H](Cc1ccccc1)C(=O)O; NMeGABA = CN(CCCC(=O)[*:2])[*:1]; NMeI = CC[C@H](C)[C@H](NC)C(=O)O; CH2CONHtBu = CC(C)(C)NC(=O)C*; NMeL = CN[C@@H](CC(C)C)C(=O)O; NMeV = CN[C@H](C(=O)O)C(C)C; NMeAbu = CC[C@H](NC)C(=O)O; NMeA = CN[C@@H](C)C(=O)O; Piperidide = C1CCN(*)CC1; X8 = C1COC[C@@H](C*)N1; NBuGly = CCCCNCC(=O)O; NPrGly = CCCNCC(=O)O; Ethyl(2-OH) = OCC*; X3 = C[C@H](O)C*; Sar = CNCC(=O)O; tBu = CC(C)(C)*

Molecule	Units label	Papp
CC[C@H](C)[C@H]1C(=O)N[C@@H]([C@@H](C)O)C(=O)N(C)CC(=O)N(C)[C@@H](C)C(=O)N[C@H](C(=O)N2CCCCC2)CC(=O)N(C)[C@@H](C)C(=O)N[C@@H](C(C)C)C(=O)N(C)[C@@H](CC(C)C)C(=O)N(C)[C@@H](Cc2ccccc2)C(=O)NC(COc2cccc(Cl)c2)C(=O)N(C)[C@@H](Cc2ccccc2)C(=O)N1C (stereo partly drawn) [pd186]	×10⁻⁶ cm/s	1.8
CC(C)C[C@H]1C(=O)N[C@@H](COC(C)(C)C)C(=O)N(C)[C@@H](Cc2ccccc2)C(=O)N(C)[C@@H](C(C)C)C(=O)N[C@H](C(=O)N2CCCCC2)CC(=O)N[C@H](C(C)C)C(=O)N(C)[C@@H](C)C(=O)N[C@@H](C(C)C)C(=O)N(C)[C@@H](CC(C)C)C(=O)N[C@@H](Cc2ccc(O)cc2)C(=O)N(C)CC(=O)N1C [pd121] ([dV][NMeA]V[NMeL]Y[Sar][NMeL]S(tBu)[NMeF][NMeV]D-Piperidide; lactam N-11)	×10⁻⁶ cm/s	1
COc1cc(C[C@@H]2NC(=O)[C@H](CC(C)C)N(C)C(=O)CCCN(C)C(=O)C[C@@H](C(=O)N3CCCCC3)NC(=O)[C@H](CC(C)C)N(C)C(=O)[C@H](CC(C)C)N(C)C(=O)[C@H]([C@@H](C)O)NC(=O)[C@H](CC(C)C)N(C)C(=O)[C@H](COC(C)(C)C)NC(=O)[C@H](Cc3ccccc3)N(C)C(=O)[C@H](CC(C)C)N(C)C2=O)ccc1O [Compound E04] ([NMeGABA][NMeL][Tyr(3-OMe)][NMeL][NMeF]S(tBu)[NMeL]T[NMeL][NMeL]D-Piperidide; lactam N-11)	×10⁻⁶ cm/s	0.4
CC[C@H](C)[C@H]1C(=O)N[C@@H]([C@@H](C)O)C(=O)N(C)CC(=O)N(C)[C@@H](CC(C)C)C(=O)N[C@H](C(=O)N2CCCCC2)CC(=O)N(C)[C@@H](C(C)C)C(=O)N[C@@H](CC(C)C)C(=O)N(C)[C@@H](CC(C)C)C(=O)N(C)[C@@H](Cc2ccccc2)C(=O)N[C@@H](COC[C@H](C)O)C(=O)N(C)[C@@H](Cc2ccccc2)C(=O)N1C [AP66] ([NMeV]L[NMeL][NMeF]S(X3)[NMeF][NMeI]T[Sar][NMeL]D-Piperidide; lactam N-11)	×10⁻⁶ cm/s	0.68
CCCCN1CC(=O)N(C)[C@@H](Cc2ccccc2)C(=O)N[C@@H]([C@@H](C)CC)C(=O)N(C)[C@@H](CC(C)C)C(=O)N[C@@H]([C@@H](C)O)C(=O)N(CCC)CC(=O)N(C)[C@@H](Cc2ccccc2)C(=O)N(C)[C@@H](CC(C)C)C(=O)N[C@@H](COCC(=O)NC(C)(C)C)C(=O)N(C)[C@@H](C)C(=O)N[C@H](C(=O)N2CCCCC2)CC1=O [AP18] ([NBuGly][NMeF]I[NMeL]T[NPrGly][NMeF][NMeL]S(CH2CONHtBu)[NMeA]D-Piperidide; lactam N-11)	×10⁻⁶ cm/s	1
CC(C)C[C@@H]1NC(=O)[C@H](Cc2cccc(Cl)c2)N(C)C(=O)[C@H](CC(C)C)N(C)C(=O)[C@H](COCCO)NC(=O)[C@H](C(C)C)N(C)C(=O)C[C@@H](C(=O)N2CCCCC2)NC(=O)[C@H](CC(C)C)N(C)C(=O)CN(C)C(=O)[C@H]([C@@H](C)O)NC(=O)[C@H](CC(C)C)N(C)C(=O)[C@H](CCc2ccccc2)N(C)C1=O [Compound A09] ([NMeV]S(Ethyl(2-OH))[NMeL][NMePhe(3-Cl)]L[NMehPhe][NMeL]T[Sar][NMeL]D-Piperidide; lactam N-11)	×10⁻⁶ cm/s	0.72
CCCCN1CC(=O)N(C)[C@@H](CC(C)C)C(=O)N[C@H](C(=O)N2CCCCC2)CC(=O)N(C)[C@@H](C)C(=O)N[C@@H](COC[C@@H]2COCCN2)C(=O)N(C)[C@@H](CC(C)C)C(=O)N(C)[C@@H](CC)C(=O)N[C@@H](C(C)C)C(=O)N(C)[C@@H](Cc2ccccc2)C(=O)N(C)[C@@H](CC(C)C)C(=O)N[C@@H]([C@@H](C)O)C1=O [AP243] ([NMeA]S(X8)[NMeL][NMeAbu]V[NMeF][NMeL]T[NBuGly][NMeL]D-Piperidide; lactam N-11)	×10⁻⁶ cm/s	0.46
CC[C@H](C)[C@H]1C(=O)N[C@@H](Cc2c[nH]c3ccccc23)C(=O)N(C)CC(=O)N(C)[C@@H](C)C(=O)N[C@H](C(=O)N2CCCCC2)CC(=O)N(C)[C@@H](C)C(=O)N[C@@H](CC(C)C)C(=O)N(C)[C@@H](CC(C)C)C(=O)N(C)[C@@H](CC(C)C)C(=O)N[C@@H](C)C(=O)N(C)[C@@H](CC(C)C)C(=O)N1C [pd101] ([NMeA]L[NMeL][NMeL]A[NMeL][NMeI]W[Sar][NMeA]D-Piperidide; lactam N-11)	×10⁻⁶ cm/s	0.13
CCCCN1CC(=O)N(C)[C@@H](CC(C)C)C(=O)N[C@H](C(=O)N2CCCCC2)CC(=O)N(C)[C@@H](CC(C)C)C(=O)N[C@@H](COCCO)CC(=O)N(C)[C@@H](CC(C)C)C(=O)N(C)[C@@H](Cc2ccccc2)C(=O)N[C@@H](CC(C)C)C(=O)N(C)[C@@H](Cc2ccccc2)C(=O)N(C)[C@@H](CC(C)C)C(=O)N[C@@H]([C@@H](C)O)C1=O [AP23] ([NMeL][X7][NMeL][NMeF]L[NMeF][NMeL]T[NBuGly][NMeL]D-Piperidide; lactam N-11)	×10⁻⁶ cm/s	0.43

====

Assay: in vitro
Conditions: human, Caco-2, Caco-2
*1 amine or outer side, *2 acyl side, *3 side chain or, on linkers, in order; H or OH if unused. Where a SMILES comes first, the peptide text is derived from it. Bridges are numbered along the chain shown (N, C = ends). [ ]: non-standard residue; d: D form. The star is where a group is joined. ξ: configuration not given here. NMeAbu(3,3-F2-piperidino) = CN[C@@H](CCN1CCCC(F)(F)C1)C(=O)O; X10 = CN([C@@H](CCN1CCC(F)(F)CC1)C(=O)[*:2])[*:1]; ξGln(SO2Me) = CS(=O)(=O)NC(=O)CCC(N)C(=O)O; NMeF = CN[C@@H](Cc1ccccc1)C(=O)O; NMeL = CN[C@@H](CC(C)C)C(=O)O; NMeV = CN[C@H](C(=O)O)C(C)C; NMeA = CN[C@@H](C)C(=O)O; Piperidide = C1CCN(*)CC1; NBuGly = CCCCNCC(=O)O; tBu = CC(C)(C)*
Measured attribute: Papp (×10⁻⁶ cm/s)

Compound	Measured attribute	Units label	Observed result
CCCCN1CC(=O)N(C)[C@@H](C(C)C)C(=O)N[C@@H](CC(C)C)C(=O)N(C)[C@@H](Cc2ccccc2)C(=O)N(C)[C@@H](CCN2CCCC(F)(F)C2)C(=O)N[C@H](C(=O)N2CCCCC2)CC(=O)N[C@H](C)C(=O)N(C)[C@@H](Cc2ccccc2)C(=O)N[C@@H](CC(C)C)C(=O)N(C)[C@@H](CC(C)C)C(=O)N[C@@H]([C@@H](C)O)C1=O [pd388] ([dA][NMeF]L[NMeL]T[NBuGly][NMeV]L[NMeF][NMeAbu(3,3-F2-piperidino)]D-Piperidide; lactam N-11)	Papp	×10⁻⁶ cm/s	1.9
CCCCN1CC(=O)N(C)[C@@H](CC(C)C)C(=O)N[C@@H](CC(C)C)C(=O)N(C)[C@@H](Cc2ccccc2)C(=O)N(C)[C@@H](C)C(=O)N[C@H](C(=O)N2CCCCC2)CC(=O)N[C@H](C(C)C)C(=O)N(C)[C@@H](Cc2ccccc2)C(=O)N[C@@H](CC(C)C)C(=O)N(C)[C@@H](CCN2CCC(F)(F)CC2)C(=O)N[C@@H]([C@@H](C)O)C1=O [pd394] ([dV][NMeF]L[X10]T[NBuGly][NMeL]L[NMeF][NMeA]D-Piperidide; lactam N-11)	Papp	×10⁻⁶ cm/s	1.8
CCCCN1CC(=O)N(C)[C@@H](CC(C)C)C(=O)N[C@@H](COC(C)(C)C)C(=O)N(C)[C@@H](Cc2ccccc2)C(=O)N(C)[C@@H](C(C)C)C(=O)N[C@H](C(=O)N2CCCCC2)CC(=O)N[C@H](C(C)C)C(=O)N(C)[C@@H](Cc2ccccc2)C(=O)NC(CCC(=O)NS(C)(=O)=O)C(=O)N(C)[C@@H](CC(C)C)C(=O)N[C@@H](CC(C)C)C1=O (stereo partly drawn) [pd67] ([dV][NMeF][ξGln(SO2Me)][NMeL]L[NBuGly][NMeL]S(tBu)[NMeF][NMeV]D-Piperidide; lactam N-11)	Papp	×10⁻⁶ cm/s	0.06
